The measured values listed here are drawn from patent US7658917.

target_system: natural β-amyloid peptide β-AP1-40 (human)
Sequence (peptide, as listed by the source): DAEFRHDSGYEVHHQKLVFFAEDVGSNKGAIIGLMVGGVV
test_protocol: cell-based or functional assay
Ends that are not written are not given here. * marks the point of attachment. Cholyl = C[C@H](CCC(=O)*)[C@H]1CC[C@H]2[C@@H]3[C@H](O)C[C@@H]4C[C@H](O)CC[C@]4(C)[C@H]3C[C@H](O)[C@]12C
reported_property: % Inhibition of Plateau; nucleation assay; 10 mole %

binder: Cholyl-HHQKLVFF [cholyl-Aβ13-20]
reported: 57%
//
binder: Cholyl-QKLVFF-OH (SMILES CC(C)C[C@H](NC(=O)[C@H](CCCCN)NC(=O)[C@H](CCC(N)=O)NC(=O)CC[C@@H](C)[C@H]1CC[C@H]2[C@@H]3[C@H](O)C[C@@H]4C[C@H](O)CC[C@]4(C)[C@H]3C[C@H](O)[C@]12C)C(=O)N[C@H](C(=O)N[C@@H](Cc1ccccc1)C(=O)N[C@@H](Cc1ccccc1)C(=O)O)C(C)C) [cholyl-Aβ15-20]
reported: ~0%
//
binder: Cholyl-KLVFF-OH [cholyl-Aβ16-20]
reported: 40%
